- ASSAY PROCEDURE: gradient 5% acetonitrile 3 min, to 50% in 2 min, to 85% in 15 min, held 3 min, 100 µL/min
- CONDITION SET: column: Zorbax Extend-C18 2.1 x 50 mm; eluents: water / acetonitrile, 0.1% formic acid
Assign a class from recorded RP-LC retention time; defined classes: bin 1 (below 700 s), bin 2 (700 s to below 800 s), bin 3 (800 s or more)

Nc1nc(N)c(-c2cccc(C(F)(F)F)c2)c(Cc2cccc(C(F)(F)F)c2)n1 ... bin 2

Q: Category lookup for the molecule CCCCNC(=O)c1nc(Nc2ccc(C)cc2)c2ccccc2n1
Ans: bin 3

Q: Category lookup for the molecule O=C(NCc1ccc2c(c1)OCO2)C1CCc2nc(N3CCCC3)ncc2C1 (centres undefined)
Ans: bin 1

Q: Category lookup for the molecule Cc1c(Cl)cccc1NS(=O)(=O)c1cc2c(s1)CCN(C(=O)C1CCC1)C2
Ans: bin 3

====

RP-LC retention time values, listed per item
- ASSAY PROCEDURE: gradient 5% acetonitrile 3 min, to 50% in 2 min, to 85% in 15 min, held 3 min, 100 µL/min
- CONDITION SET: column: Zorbax Extend-C18 2.1 x 50 mm; eluents: water / acetonitrile, 0.1% formic acid
Only the number, expressed in s, is required.

CCSCCOC(=O)C1=C(C)NC2=C(C(=O)CCC2)C1c1ccc(C(=O)OC)cc1 (stereo not given) ... 892
COc1ccc(-c2nnc(N3CCC(C(=O)NCc4ccco4)CC3)o2)cc1 ... 738

Q: Which measured RP-LC retention time value corresponds to Cc1[nH]c(C)c(S(=O)(=O)N2CCC(C(=O)Nc3ccc(F)cc3F)CC2)c1C(=O)N1CCCC1 ?
Ans: 676

Q: Which measured RP-LC retention time value corresponds to O=C(Cn1ccc2c(SCc3ccc(F)cc3)nccc21)NCc1ccc2c(c1)OCO2 ?
Ans: 744

Q: Which measured RP-LC retention time value corresponds to CCN1CCC2(CC1)N=C(c1ccccc1)CC(c1cc(Cl)ccc1O)N2 (stereo not given) ?
Ans: 621

====

- ASSAY PROCEDURE: gradient 5% acetonitrile 3 min, to 50% in 2 min, to 85% in 15 min, held 3 min, 100 µL/min
- CONDITION SET: column: Zorbax Extend-C18 2.1 x 50 mm; eluents: water / acetonitrile, 0.1% formic acid
READOUT TYPE: RP-LC retention time (s)
Only the number, expressed in s, is required.

COc1cc(C2OC(c3ccc(F)cc3)=NN2C(C)=O)cc(OC)c1OC (centres undefined) ... 902
CCc1nncn1C1CCN(S(=O)(=O)c2cc(OC)ccc2OC)CC1 ... 664
COc1ccccc1CNC(=O)CN1C(=O)C2CCCCN2c2ccc(S(=O)(=O)N(C)C)cc21 (centres undefined) ... 885
COc1ccc(N2CCN(C(=O)COc3nccc(C)n3)CC2)cc1 ... 617
CC(C)CN1C(=O)c2ccccc2C(C(=O)N2CCN(c3ccccn3)CC2)C1c1cccs1 (centres undefined) ... 674
O=C(Nc1cccc(Cl)c1)c1c(O)c2cccnc2n(-c2ccc(F)cc2)c1=O ... 1320

Q: Which measured RP-LC retention time value corresponds to COC[C@@H]1CN(Cc2cccc(OC)c2OC)C[C@H]1c1ccccn1 ?
Ans: 656

Q: Which measured RP-LC retention time value corresponds to Cc1cc2c(=O)n(CC(=O)Nc3cc(F)ccc3F)ccc2s1 ?
Ans: 817

Q: Which measured RP-LC retention time value corresponds to Cc1ccc(Nc2c(-c3cc(Br)ccc3F)nc3ccccn23)cc1 ?
Ans: 801
